IC50 ratio cyno/human values, listed per item
# Target: cynomolgus PAI-1 (cynomolgus, UniProt P05121 24-402 (human entry), limits assumed)
# Test Protocol: cell-based or functional assay
Observed Property: IC50 ratio cyno/human

# Binder, Endpoint Value
data = [
    ("Antibody 13, scFv (scFv, V domains shown) VH: QVQLQQSGAEVKKPGSSVKVSCKASGGTFSSYAISWVRQAPGQGLEWMGGIIPTFGTANYAQKFQGRVTITADESTSTAYMELSDLRSEDTAVYYCAREKRQWLEGHFDYWGRGTPVTVSS VL: DIQMTQSPSFLSASIGDRVTITCRASEGIYHSLAWYQQKPGKAPKLLIYRASSLASGAPSRFSGSGSGTDFTLTISSLQPDDFATYYCQQYSNYPLTFGGGTKLEIK", 0.4),
    ("Antibody 15, scFv (scFv, V domains shown) VH: QVQLQQSGAEVKKPGSSVKVSCKASGGTFSSYAISWVRQAPGQGLEWMGGIIPTFGTANYAQKFQGRVTITADESTSTAYMELSGLRSEDTAVYYCAREKRQWLEGHFDYWGRGTPVTVSS VL: DIQMAQSPSFLSASIGDRVTITCRASEGIYHNLAWYQQKPGKAPKLLIYRASSLASGAPSRFSGSGSGTDFTLTISSLQPDDFATYYCQQYSNYPLTFGGGTKLEIR", 0.3),
    ("Antibody 04, scFv (scFv, V domains shown) VH: QVRLQQSGAEVKKPGSSVKVSCKASGGTFSSYAISWVRQAPGQGLEWMGGIIPTFGTANYAQKFRGRVTITANESTSTAYMELSGLRSEDTAVYYCAREKRQWLEGRFDYWGRGTLVTVSS VL: DIQMTQSPSFLSASIGDRITITCRASEGIYHSLAWYQQKPGKAPKLLIHRATSLASGTPSRFGGSGSGTDFALTISSLQPDDFATYYCQQYSNYPLTFGGGTKLEIK", 0.3),
    ("Antibody 10, scFv (scFv, V domains shown) VH: QVQLQQSGAEVKKPGSSVKVSCKASGGTFSSYAISWVRQAPGQGLEWMGGIIPTFGTANYAQKFQGRVTITADESTSTAYMELSSLRSEDTAVYYCAREKRQWLEGHFDYWGRGTPVTVSS VL: DIQMTQSPSFLSASIGDRVAITCRASEGIYHSLAWYQQKPGKAPKLLIYRASSLASGAPSRFSGSGSGTDFTLTISSLQPDDFATYYCQQYSNYPLTFGGGTRLEIK", 0.2),
    ("Antibody 26, scFv (scFv, V domains shown) VH: QVQLQQSGAEVKKPGTSVKVSCKASGGTFSSYAISWVRQAPGQGLEWMGGIIPIFGTANYAQKFQGRVTITADESTSTAYMELSSLRSEDTAVYYCAREKRQWLEGHFDYWGRGTPVTVSS VL: DIQMTQSPSFLSASIGDRVTITCRASEGIYHTLAWYQQKPGKAPKLLIYRASSLASGAPSRFSGSGSGTDFTLTISSLQPDDFATYYCQQYSNYPLTFGGGTKLEIK", 0.3),
]
